This collection of values is drawn from patent US20260008852A1.

Molecular target: T1, his-tagged B7-H3 (UniProt Q5ZPR3-2 29-245, limits assumed)
T1 construct: also called CD276; not shown: His tag
T1 sequence (looked up): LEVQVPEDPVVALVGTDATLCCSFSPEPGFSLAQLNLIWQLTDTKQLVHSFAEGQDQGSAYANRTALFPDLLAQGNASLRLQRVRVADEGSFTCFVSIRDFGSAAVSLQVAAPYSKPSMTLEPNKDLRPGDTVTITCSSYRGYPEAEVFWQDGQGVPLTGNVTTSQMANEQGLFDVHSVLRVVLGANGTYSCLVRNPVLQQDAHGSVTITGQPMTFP
Assay: SPR, Carterra LSA; binder captured by anti-human Fc, his-tagged B7-H3 injected
Description: Binding affinities of anti-B7-H3 antibodies to B7-H3 were measured by Surface Plasmon Resonance (SPR) on a Carterra LSA instrument. Goat anti-human Fc antibody was amine coupled to a HC30M chip. ScFv-Fc supernatants were diluted 30-fold with HBSTE and were captured by the anti-human Fc coupled HC30M chip. A 1:2 dilution series of his-tagged B7-H3, starting at 400 nM, was injected onto the chip for binding. Data was analyzed using the Carterra TM Kinetics software.
property-name: koff (s⁻¹)
Output spec: scalar in s⁻¹, unitless text.

Example binders with recorded koff:
{"columns": ["binder", "koff (s⁻¹)"],
 "data": [
  ["40633p1.1.F2 scFv-Fc (scFv, V domains shown, Tested as scFv-Fc supernatant) VH: EVQLLESGGGLVQPGGSLRLSCVASGLTFNGFAMTWVRQAPGKGLEWVSGISWNSGSIYYADSVKGRFTISRDNSKNTVYLQMSSLRAEDTAIYYCAKNWNDYYNSMDVWGQGTTVTVSS VL: QSVLTQPPSASGTPGQRVTISCSGSRSNIGTKYVYWYQQFPGTAPKLLIYTTDRRPSGVPDRFSGSKSGTSASLAISGLQSEDEADYYCSAWDDRLNAWVFGGGTKLTVL", 0.03],
  ["Benchmark MGA-271 (antibody, V domains shown) VH: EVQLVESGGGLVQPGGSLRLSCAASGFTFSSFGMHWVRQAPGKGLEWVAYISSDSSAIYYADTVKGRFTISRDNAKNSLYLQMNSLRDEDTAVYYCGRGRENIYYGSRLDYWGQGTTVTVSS VL: DIQLTQSPSFLSASVGDRVTITCKASQNVDTNVAWYQQKPGKAPKALIYSASYRYSGVPSRFSGSGSGTDFTLTISSLQPEDFATYYCQQYNNYPFTFGQGTKLEIK", 0.01]
]}

Here's the next entry for you.
Name the reported koff value associated with the binder 40511p1.2.A4 scFv-Fc (scFv, V domains shown, Tested as scFv-Fc supernatant) VH: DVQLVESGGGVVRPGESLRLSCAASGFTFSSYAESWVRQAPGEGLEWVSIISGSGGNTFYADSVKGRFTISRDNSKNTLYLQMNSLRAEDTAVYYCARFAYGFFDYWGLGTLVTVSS VL: EIVLTQSPGTLSVSPGERATLSCRASQTVGSKLAWYQQKPGQAPRLLIYDASTRATDIPDRFSGSGSGTDFTLTISSLQSEDFAVYYCQQYRNWPPLTFGGGTKVEIK
0.04
